Recorded values, source ChEMBL document CHEMBL1201862.

Target: Ataxin-2 (Homo sapiens) (UniProt Q99700)
Sequence (Q99700 whole entry): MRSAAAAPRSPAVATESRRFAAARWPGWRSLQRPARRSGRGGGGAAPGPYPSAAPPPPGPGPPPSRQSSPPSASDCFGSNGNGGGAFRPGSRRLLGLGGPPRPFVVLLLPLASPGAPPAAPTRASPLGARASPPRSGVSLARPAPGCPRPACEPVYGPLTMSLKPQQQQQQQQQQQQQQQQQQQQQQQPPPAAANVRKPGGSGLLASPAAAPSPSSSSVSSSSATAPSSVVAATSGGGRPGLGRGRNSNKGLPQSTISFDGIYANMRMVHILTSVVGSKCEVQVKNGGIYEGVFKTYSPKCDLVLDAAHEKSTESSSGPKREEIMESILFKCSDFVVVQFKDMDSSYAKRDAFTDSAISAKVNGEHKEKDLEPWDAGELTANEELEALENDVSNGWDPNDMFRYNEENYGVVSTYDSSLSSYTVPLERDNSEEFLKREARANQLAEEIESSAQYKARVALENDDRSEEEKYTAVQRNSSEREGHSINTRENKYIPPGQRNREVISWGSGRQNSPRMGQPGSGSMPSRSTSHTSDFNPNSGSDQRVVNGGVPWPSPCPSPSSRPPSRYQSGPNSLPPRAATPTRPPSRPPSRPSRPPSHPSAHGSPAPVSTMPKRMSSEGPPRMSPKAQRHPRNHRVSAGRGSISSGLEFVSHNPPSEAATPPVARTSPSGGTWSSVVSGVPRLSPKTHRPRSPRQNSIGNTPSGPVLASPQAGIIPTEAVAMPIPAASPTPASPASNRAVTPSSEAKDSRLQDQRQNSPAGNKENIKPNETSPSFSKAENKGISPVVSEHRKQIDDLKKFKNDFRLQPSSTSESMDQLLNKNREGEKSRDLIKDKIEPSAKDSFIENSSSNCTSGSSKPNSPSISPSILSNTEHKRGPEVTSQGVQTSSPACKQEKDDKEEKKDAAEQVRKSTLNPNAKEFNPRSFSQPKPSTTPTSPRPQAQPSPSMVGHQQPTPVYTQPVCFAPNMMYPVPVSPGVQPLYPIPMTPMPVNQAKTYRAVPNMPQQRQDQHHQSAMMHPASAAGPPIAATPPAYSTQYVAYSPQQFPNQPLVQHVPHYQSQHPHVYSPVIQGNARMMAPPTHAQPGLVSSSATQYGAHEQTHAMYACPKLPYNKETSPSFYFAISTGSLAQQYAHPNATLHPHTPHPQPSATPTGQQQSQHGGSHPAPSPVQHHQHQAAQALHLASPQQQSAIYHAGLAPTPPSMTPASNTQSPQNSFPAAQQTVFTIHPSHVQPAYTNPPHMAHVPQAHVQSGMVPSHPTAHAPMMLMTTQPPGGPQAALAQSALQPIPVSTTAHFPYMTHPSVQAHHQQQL
Test: qHTS for Inhibitors of ATXN expression.
Type: functional
In all, about 400,000 compounds went through this assay and about 2,100 (0.53%) were called active. Inconclusive results (about 14%) are left out. The rule behind the calls is not given here. Many of the other results were omitted from the sample, so actives are more common in it than they were.
Outcome (select one): Yes = active, No = inactive

# molecule, label
rows = [
    ("CCN1C(=O)c2cccc3c(S(=O)(=O)NCc4ccccc4)ccc1c23", "No"),
    ("CCOC(=O)c1c(NC(=O)c2ccc(S(=O)(=O)N(CC(C)C)CC(C)C)cc2)sc2c1CCN(CC)C2", "No"),
    ("COc1ccc(C2c3c(ncn(CCCO)c3=N)Oc3ccc4ccccc4c32)cc1 (configuration not stated)", "Yes"),
    ("CCOC(=O)c1c(NC(=O)C(NCCN(C)C)c2ccccc2)sc2c1CCCC2 (configuration not stated)", "Yes"),
    ("CC(=O)c1ccc(/N=c2\\scc(C)n2C(C)C)cc1", "No"),
]

Q. Assay outcome for `CCCCCC(=O)N1C[C@H](n2cc(COC(=O)c3ccccc3)nn2)[C@@H](O)C[C@@H]1c1ccc(Cl)cc1` : what was it?
A. Yes

Q. Assay outcome for `NC(=O)c1sc2nc(-c3ccccc3)ccc2c1N` : what was it?
A. No

Q. Assay outcome for `CNc1nc(NCC2CCCCC2)c2sccc2n1` : what was it?
A. Yes

Q. Assay outcome for `COc1ccccc1CNc1nc(NCC2CC2)nc2ccsc12` : what was it?
A. Yes

Q. Assay outcome for `CC(C)Nc1nc(NCCOc2ccccc2Cl)c2sccc2n1` : what was it?
A. Yes

Q. Assay outcome for `c1ccc(CNc2nc(NCCOc3ccccc3)c3sccc3n2)cc1` : what was it?
A. Yes

Q. Assay outcome for `O=C1C=CC(=O)N1c1ccc(OC(F)F)cc1` : what was it?
A. Yes

Q. Assay outcome for `COCCNC(=O)/C(C#N)=C/c1c(N2CCN(C)CC2)nc2ccccn2c1=O` : what was it?
A. No

Q. Assay outcome for `CC(C)C[C@@H](CN1CCC[C@H]1CN1C(=O)C(=O)NC[C@@H]1Cc1ccccc1)N1C[C@H](Cc2ccccc2)N(CC2CCCCC2)C(=O)C1=O` : what was it?
A. Yes

Q. Assay outcome for CCn1ccnc1CN1CCc2c([nH]c3ccccc23)C1CC(C)C (configuration not stated) : what was it?
A. No

Q. Assay outcome for `C/C(=N\NC(=O)C1CC1)c1ccc(OC(F)F)cc1` : what was it?
A. No

Q. Assay outcome for `COc1ccc(C(=O)NCCOc2ccccc2Cl)c(OC)c1OC` : what was it?
A. No

Q. Assay outcome for `CCCCCCCCNCCS(=O)(=O)NCc1ccccc1` : what was it?
A. Yes

Q. Assay outcome for `NC(=O)c1cc(S(=O)(=O)NCc2ccccc2)cs1` : what was it?
A. No

###

Molecular target: Ataxin-2 (Homo sapiens) (UniProt Q99700)
Assay: qHTS for Inhibitors of ATXN expression.
Assay type: functional
Out of some 400,000 compounds screened, about 2,100 (0.53%) were called active. About 14% were inconclusive and are not listed. The list comes from a sample in which actives are over-represented; it also holds close analogues and randomly drawn compounds.
propertyLabel: Potency

Below are worked cases with known answers.
# entrySmiles, Potency
rows = [
    ("Cc1cccc(C2=NN(c3ccccc3)[C@@H](C(=O)N3CCOC3=O)[C@@H]2c2ccc(Cl)cc2)c1", "inactive"),
    ("COc1cc(/C=C(\\C#N)c2nc3ccccc3[nH]2)cc(Cl)c1OCc1ccccc1Cl", "inactive"),
    ("CCC1=Nc2cc(C(=O)N3CCC(C)CC3)ccc2Sc2ccc(C)cc21", "28.2 µM (active)"),
    ("O=C(Cc1ccc(Cl)cc1)Nc1ccc(-c2nnc(-c3ccco3)o2)cc1", "39.8 µM (active)"),
]

Proceeding to the next compound to report its Potency.
Q. Report Potency for `COc1cc(CNC2CCCC2)cc(Cl)c1OCc1ccccc1F`
A. 28.2 µM (active)

###

Target: Ataxin-2 (Homo sapiens) (UniProt Q99700)
Assay: qHTS for Inhibitors of ATXN expression.
Type: functional
In all, about 400,000 compounds went through this assay and about 2,100 (0.53%) were called active. About 14% were inconclusive and are not listed. The rule behind the calls is not given here. This is one part of a sample in which actives are shown more often than they occur.
Outcome (select one): active, inactive

# entrySmiles, label
measured = [
    ("CC(C)(C)OC(=O)NCCc1nnc(S(=O)(=O)Cc2ccc(Cl)cc2Cl)o1", "active"),
]

Q. Assay outcome for `CCOc1ccc(-c2nnn(CCC#N)n2)cc1OC` : what was it?
A. inactive

Q. Assay outcome for `CN(c1ccccc1)S(=O)(=O)c1cc(C(=O)OCC(N)=O)ccc1Cl` : what was it?
A. inactive

Q. Assay outcome for `CCOCCCNC(=O)c1ccc2nc(-c3ccc(OC)c(OC)c3)c(-c3ccc(OC)c(OC)c3)nc2c1` : what was it?
A. inactive

Q. Assay outcome for `CCCCc1c(-c2ccc(OC)c(OC)c2)ncn1CCc1ccccc1OC` : what was it?
A. active

###

Biological target: Ataxin-2 (Homo sapiens) (UniProt Q99700)
Experiment: qHTS for Inhibitors of ATXN expression.
Assay type: functional
About 2,100 (0.53%) of roughly 400,000 compounds were called active. Not shown: some 14% with an inconclusive outcome. No rule for the calls is given here. Many of the other results were omitted from the sample, so actives are more common in it than they were.
Outcome (select one): True for active, False for inactive

Known results for compounds:
# compound, targetOrSystem, label
rows = [
    ("CC/N=C1/S/C(=C/c2ccc(-c3ccc(F)cc3)o2)C(=O)N1CC", "Ataxin-2 (Homo sapiens) (UniProt Q99700)", "False"),
    ("Nc1ccc2[nH]c(-c3ccc(-c4nc5cc(N)ccc5[nH]4)cc3)nc2c1", "Ataxin-2 (Homo sapiens) (UniProt Q99700)", "False"),
    ("COc1ccc(/C=C2/SC(=S)N(CCCC(=O)N3CCN(C)CC3)C2=O)cc1", "Ataxin-2 (Homo sapiens) (UniProt Q99700)", "True"),
    ("Nc1ccc2c3[nH]c4cc(N)ccc4cc-3nc2c1", "Ataxin-2 (Homo sapiens) (UniProt Q99700)", "False"),
]

Q. Assay outcome for `CN1CCN(C(=O)CCN2C(=O)/C(=C\c3ccc(F)cc3)SC2=S)CC1` : what was it?
A. True

Q. Assay outcome for `COc1ccc(/C=C2\SC(=S)N(CC(=O)NNC(=O)c3ccncc3)C2=O)cc1` : what was it?
A. False

Q. Assay outcome for `Nc1ccc2[nH]c(-c3ccc(Cl)cc3)nc2c1` : what was it?
A. True

Q. Assay outcome for `COc1ccccc1CNC(=O)CN1C(=O)c2cccc(N)c2C1=O` : what was it?
A. False

Q. Assay outcome for COc1ccccc1CNC(=O)CCC1N=C2c3ccccc3N=C(SCc3ccc(C)cc3C)N2C1=O (stereo not given) : what was it?
A. True

Q. Assay outcome for `CC(C)C[C@H]1CNC(=S)N1C[C@H]1CCCN1C[C@H](CC(C)C)N1C[C@H](Cc2ccc(O)cc2)N(CC2CCCCC2)C1=S` : what was it?
A. True

###

Molecular target: Ataxin-2 (Homo sapiens)
Test: qHTS for Inhibitors of ATXN expression.
Type: functional
The campaign covered roughly 400,000 compounds. About 2,100 (0.53%) were called active. Inconclusive results (about 14%) are left out. Shown is part of a subset that was picked to be rich in actives.
propertyLabel: Potency

Below are worked cases with known answers.
# compound, Potency
records = [
    ("Cc1cccc(N2C(=O)/C(=C\\Nc3cc(O)ccc3C)c3ccccc3C2=O)n1", "inactive"),
    ("Cc1c(N(C(=O)Cc2cccs2)C2(C(=O)NC3CCCC3)CCCCC2)c(=O)n(-c2ccccc2)n1C", "inactive"),
    ("COC1(OC)C(/C=C/c2ccc(Cl)cc2)C(C#N)(C#N)C1(OC)OC (centres undefined)", "31.6 µM (active)"),
    ("O=C(COC(=O)c1cncc(Br)c1)NCc1cccs1", "inactive"),
    ("CC1=CC(=O)C(Sc2ccc(C)cc2)=CC1=O", "inactive"),
]

Q. Report Potency for `c1cn2c(NC3CCCCC3)c(-c3ccc(SC4CCCCC4)cc3)nc2cn1`
A. inactive

Q. Report Potency for `CCCCCCCCN1C(=O)[C@H](CC(=O)NCCC(C)C)C[C@@]2(C(=O)OCC)CCCC=C12`
A. 39.8 µM (active)

Q. Report Potency for `O=S(=O)(/C=C/c1ccccc1)NCc1ccccc1Cl`
A. inactive

Q. Report Potency for `COC(=O)c1ccc(CO/N=C/c2ccc(OC)cc2)o1`
A. inactive

Q. Report Potency for `C#CCOCCOCCOCCNc1nc(N2CCN(C(=O)CCCCCCCCCCNC(=O)[C@H](CCCCN)n3cc(C[C@@H](C)CC)nn3)CC2)nc(N2CCN(C(=O)CCCCCCCCCCNC(=O)[C@H](CCCN=C(N)N)n3cc(C[C@@H](C)CC)nn3)CC2)n1`
A. 20 µM (active)
